Sourced from patent US11766628B2

assay: Partition of cannabinoids between degummed cannabis oil miscella and water/ethanol/base extraction solvent in a fiber conduit contactor; assay type: physicochemical; design: scale not given here; settings: Base Na2CO3; H2O/EtOH/Base (wt %) 82.9/14.5/2.6

| COMPOUND | Partition coefficient |
| --- | --- |
| CCCCCc1cc(O)c2c(c1)OC(C)(CCC=C(C)C)C=C2 (stereo not shown) | −0.14 |
| CCCCCc1cc2c(c(O)c1C(=O)O)C=CC(C)(CCC=C(C)C)O2 (stereo not shown) | 1.15 |
| CCCCCc1cc(O)c(C/C=C(\C)CCC=C(C)C)c(O)c1 | 1.59 |
| CCCCCc1cc(O)c2c(c1)OC(C)(C)[C@@H]1CCC(C)=C[C@@H]21 [THC, tetrahydrocannabinol, reference compound] | 0.13 |

---

assay: Partition of cannabinoids between degummed cannabis oil miscella and water/ethanol/base extraction solvent in a fiber conduit contactor; format: physicochemical; design: scale not given here; settings: Base Na2CO3; H2O/EtOH/Base (wt %) 68.4/29.1/2.5

| COMPOUND | Partition coefficient |
| --- | --- |
| CCCCCc1cc(O)c(C/C=C(\C)CCC=C(C)C)c(O)c1 [CBG, cannabigerol] | 1.58 |
| C=C(C)[C@@H]1CCC(C)=C[C@H]1c1c(O)cc(CCCCC)cc1O [CBD, cannabidiol, reference compound] | −0.87 |
| CCCCCc1cc(O)c2c(c1)OC(C)(C)[C@@H]1CCC(C)=C[C@@H]21 [THC, tetrahydrocannabinol, reference compound] | 0.22 |
| CCCCCc1cc2c(c(O)c1C(=O)O)C=CC(C)(CCC=C(C)C)O2 (stereo not shown) [CBCA, cannabichromenic acid] | 0.93 |

---

assay: Partition of cannabinoids between degummed cannabis oil miscella and water/ethanol/base extraction solvent in a fiber conduit contactor; type: physicochemical; design: scale not given here; settings: Base NaHCO3; H2O/EtOH/Base (wt %) 72.9/24.6/2.5

| MOLECULE | Partition coefficient |
| --- | --- |
| CCCCCc1cc(O)c2c(c1)OC(C)(CCC=C(C)C)C=C2 (stereo not shown) | 0.83 |
| CCCCCc1cc(O)c2c(c1)OC(C)(C)[C@@H]1CCC(C)=C[C@@H]21 [THC, tetrahydrocannabinol, reference compound] | 1.03 |
| C=C(C)[C@@H]1CCC(C)=C[C@H]1c1c(O)cc(CCCCC)c(C(=O)O)c1O | 0.68 |
| CCCCCc1cc(O)c(C/C=C(\C)CCC=C(C)C)c(O)c1C(=O)O | 0.76 |

---

test: Partition of cannabinoids between degummed cannabis oil miscella and water/ethanol/base extraction solvent in a fiber conduit contactor; assay type: physicochemical; set-up: scale not given here; conditions: Base NaHCO3; H2O/EtOH/Base (wt %) 879./9.7/2.4

| MOLECULE | Partition coefficient |
| --- | --- |
| C=C(C)[C@@H]1CCC(C)=C[C@H]1c1c(O)cc(CCCCC)cc1O [CBD, cannabidiol, reference compound] | 1.14 |
| CCCCCc1cc2c(c(O)c1C(=O)O)[C@@H]1C=C(C)CC[C@H]1C(C)(C)O2 [THCA, tetrahydrocannabinolic acid] | 1.12 |
| C=C(C)[C@@H]1CCC(C)=C[C@H]1c1c(O)cc(CCCCC)c(C(=O)O)c1O | 0.96 |
| CCCCCc1cc2c(c(O)c1C(=O)O)C=CC(C)(CCC=C(C)C)O2 (stereo not shown) | 1.17 |
| CCCCCc1cc(O)c(C/C=C(\C)CCC=C(C)C)c(O)c1C(=O)O | 1.1 |
| CCCCCc1cc(O)c2c(c1)OC(C)(C)[C@@H]1CCC(C)=C[C@@H]21 [THC, tetrahydrocannabinol, reference compound] | 1.17 |
| CCCCCc1cc(O)c2c(c1)OC(C)(CCC=C(C)C)C=C2 (stereo not shown) | 1.21 |
